Molecular target: human NaV 1.8 (Homo sapiens, UniProt Q9Y5Y9)
Sequence (Q9Y5Y9 whole entry, looked up): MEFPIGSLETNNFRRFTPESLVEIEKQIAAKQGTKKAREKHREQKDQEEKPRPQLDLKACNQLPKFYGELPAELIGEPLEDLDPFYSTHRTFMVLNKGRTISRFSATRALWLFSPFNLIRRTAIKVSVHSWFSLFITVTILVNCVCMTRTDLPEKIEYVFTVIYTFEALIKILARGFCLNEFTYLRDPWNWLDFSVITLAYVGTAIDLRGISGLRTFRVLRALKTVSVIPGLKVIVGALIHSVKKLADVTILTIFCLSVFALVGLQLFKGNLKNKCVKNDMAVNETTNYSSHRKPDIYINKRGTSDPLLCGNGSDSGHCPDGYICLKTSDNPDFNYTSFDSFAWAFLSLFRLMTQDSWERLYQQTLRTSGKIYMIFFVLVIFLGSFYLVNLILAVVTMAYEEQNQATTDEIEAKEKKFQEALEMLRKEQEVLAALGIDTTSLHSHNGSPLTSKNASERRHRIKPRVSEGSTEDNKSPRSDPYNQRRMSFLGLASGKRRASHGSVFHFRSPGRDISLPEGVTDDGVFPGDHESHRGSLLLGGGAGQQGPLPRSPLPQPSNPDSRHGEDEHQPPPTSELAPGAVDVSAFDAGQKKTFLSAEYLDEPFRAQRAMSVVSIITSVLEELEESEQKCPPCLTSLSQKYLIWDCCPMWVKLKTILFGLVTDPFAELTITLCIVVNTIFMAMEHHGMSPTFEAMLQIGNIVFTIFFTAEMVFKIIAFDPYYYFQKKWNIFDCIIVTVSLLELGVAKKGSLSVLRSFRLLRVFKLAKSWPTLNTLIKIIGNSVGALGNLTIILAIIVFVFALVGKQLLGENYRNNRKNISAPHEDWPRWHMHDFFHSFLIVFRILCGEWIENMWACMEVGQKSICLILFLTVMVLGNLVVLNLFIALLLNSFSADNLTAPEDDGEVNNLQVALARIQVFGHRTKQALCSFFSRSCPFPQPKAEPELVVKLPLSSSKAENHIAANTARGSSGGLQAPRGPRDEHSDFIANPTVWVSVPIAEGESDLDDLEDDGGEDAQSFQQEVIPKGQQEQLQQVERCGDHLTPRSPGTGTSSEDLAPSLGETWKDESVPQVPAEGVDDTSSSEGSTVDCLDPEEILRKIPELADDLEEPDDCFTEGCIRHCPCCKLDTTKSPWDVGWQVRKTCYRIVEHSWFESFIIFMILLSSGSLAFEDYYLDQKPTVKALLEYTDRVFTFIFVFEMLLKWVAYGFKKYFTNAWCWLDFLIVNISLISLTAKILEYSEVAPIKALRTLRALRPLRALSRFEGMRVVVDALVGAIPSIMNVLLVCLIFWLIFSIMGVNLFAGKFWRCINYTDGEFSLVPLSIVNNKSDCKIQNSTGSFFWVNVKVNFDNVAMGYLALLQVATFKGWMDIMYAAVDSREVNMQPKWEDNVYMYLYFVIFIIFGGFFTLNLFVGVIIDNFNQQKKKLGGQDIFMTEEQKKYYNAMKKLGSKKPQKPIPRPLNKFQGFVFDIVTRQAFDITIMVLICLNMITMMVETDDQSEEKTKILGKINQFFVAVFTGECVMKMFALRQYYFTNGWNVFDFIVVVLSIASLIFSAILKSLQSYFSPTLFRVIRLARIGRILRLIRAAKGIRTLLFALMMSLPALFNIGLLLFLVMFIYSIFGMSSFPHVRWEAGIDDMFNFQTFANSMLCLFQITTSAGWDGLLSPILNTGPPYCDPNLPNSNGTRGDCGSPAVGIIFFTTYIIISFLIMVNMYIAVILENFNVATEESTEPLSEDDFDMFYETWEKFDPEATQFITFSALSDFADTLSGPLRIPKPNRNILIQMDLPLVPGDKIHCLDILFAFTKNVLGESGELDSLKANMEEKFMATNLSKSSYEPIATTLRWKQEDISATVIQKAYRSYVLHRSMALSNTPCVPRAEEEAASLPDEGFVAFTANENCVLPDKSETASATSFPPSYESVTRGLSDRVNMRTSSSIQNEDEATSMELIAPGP
Assay: E-VIPR assay for detecting and measuring NaV inhibition properties
Type: cell-based
Settings: E-VIPR assay conducted in the presence of human serum; HEK cells expressing truncated human NaV 1.8; read-out: IC50
reported property: pIC50
Reminder that pIC50 means the negative base-10 logarithm of the concentration expressed in mol/L.

Solved cases (4 shown):
1) Cc1cc(Oc2ccc(C(F)(F)F)cc2C(=O)Nc2ccnc(C(N)=O)c2)ccc1F
5.85
2) Cc1c(C2CC2)ccc(Oc2ccc(OC(F)(F)F)cc2Cl)c1C(=O)Nc1ccnc(C(N)=O)c1
7.68
3) NC(=O)c1cc(NC(=O)c2c(Oc3ccc(OC(F)(F)F)cc3Cl)ccc(C(F)(F)F)c2Cl)ccn1
8.40
4) COc1cc(Cl)ccc1Oc1ccc(C(F)(F)F)c(C)c1C(=O)Nc1ccnc(C(N)=O)c1
6.92

Provide measured pIC50 on human NaV 1.8 (Homo sapiens, UniProt Q9Y5Y9) for `COc1c(Oc2cc(C(F)(F)F)c(OC)c(F)c2C(=O)Nc2cc(C(N)=O)ncc2C)ccc(F)c1F` please.
8.05
